system: Plasmodium falciparum; test: Antimalarial activity against artemisinin-sensitive Plasmodium falciparum F32-TEM by SYBR green dye based fluorescence assay; format: functional, organism-based
measured.endpoint: pIC50
Just the number, please; pIC50 means minus log10 of the concentration in mol/L.

Task: Which pIC50 is reported with Plasmodium falciparum for this entry: O[C@@H](c1cc(C(F)(F)F)nc2c(C(F)(F)F)cccc12)[C@H]1CCCCN1 [(S,R)-MEFLOQUINE] ?
Result: 7.06

Task: Item: `Cc1nc(C)c(-c2ccc(Oc3ccc(OC(F)(F)F)cc3)cc2)c(OC(=O)CCCCCCC(=O)Oc2cc(Cl)ccc2Oc2ccc(Cl)cc2Cl)c1Cl`
Result: 6.77

Task: What do you get for `O=C(CCCCCCC(=O)Oc1cc(Cl)ccc1Oc1ccc(Cl)cc1Cl)OC1=C([C@H]2CC[C@H](c3ccc(Cl)cc3)CC2)C(=O)c2ccccc2C1=O` ?
Result: 9.22

Task: For `C[C@@H]1CC[C@H]2[C@@H](C)C(=O)O[C@@H]3O[C@@]4(C)CC[C@@H]1[C@]32OO4` then?
Result: 7.74

Task: Next compound: `Cc1[nH]c(C)c(-c2ccc(Oc3ccc(OC(F)(F)F)cc3)cc2)c(=O)c1Cl`
Result: 7.38

Task: For `Cl.O=C(CCCC(=O)O[C@H](c1cc(C(F)(F)F)nc2c(C(F)(F)F)cccc12)[C@@H]1CCCCN1)OC1=C([C@H]2CC[C@H](c3ccc(Cl)cc3)CC2)C(=O)c2ccccc2C1=O` then?
Result: 8.96

Task: Now consider `O=C1C(O)=C([C@H]2CC[C@H](c3ccc(Cl)cc3)CC2)C(=O)c2ccccc21` .
Result: 8.68

Task: Check `Cl.O=C(CCC(=O)O[C@H](c1cc(C(F)(F)F)nc2c(C(F)(F)F)cccc12)[C@@H]1CCCCN1)OC1=C([C@H]2CC[C@H](c3ccc(Cl)cc3)CC2)C(=O)c2ccccc2C1=O` too.
Result: 9.22
